The values you see were collected from patent US20210347914A1.

A collection of binders and their measured kon
# system.under.test: T1, Polyhistidine-tagged recombinant human UCH-L1 expressed from E. coli (human, UniProt P09936 1-223, limits assumed)
# T1 construct: also called UCH-L1-His; not shown: polyhistidine tag
# measurement.notes: BLI (Octet QKe); His-tagged UCH-L1 on anti-Penta-HIS sensor, antibody in solution
Dear colleague, please return just the value in M⁻¹ s⁻¹, with no unit written.

Specify kon for UCH-L1-3 (antibody, V domains shown, also called mouse anti-UCH-L1 antibody UCH-L1-3) VH: QVQLQQPGSELVRPGASVKLSCRASGYTFTSYWIHWVKQRHGQGLEWIGNIYPGSGITNYDEKFKTKGTLTVDTSSSTVYMHLISLTSEDSAVYYCTREDYWGQGTTLTVSS VL: DVLMTQTPLSLPVSLGDQASISCRSSQSIVHSNGNTYLEWYLQKPGQSPKLLIYKVSNRFSGVPDRFSGSGSGTDFTLKISGVETEDLGVYYCFQGSHVPFTFGGGTKLEIK and stop.
36400

Specify kon for UCH-L1-4 (antibody, V domains shown, also called mouse anti-UCH-L1 antibody UCH-L1-4) VH: AVQLQQSGPELVKPGASVKISCKTSGDTFTEHFMNWVKQSHGESLEWIGIINPYTDGTNYDQKFKDKATLTVDKSSSTAYMELRSLTSEDSAVYYCARWGGDGEGYWGQGTTLTVSS VL: DIVMTQAAPSVSVTPGESVSISCRSSKSLLHSNGNTYLYWFLKRPGQSPQLLIYRMSNLASGVPDRVSGSGSGTAFTLRISRVEAEDVGIYYCMQHLEYPLTFGAGTKLELK and stop.
378000

Specify kon for UCH-L1-5 (antibody, V domains shown, also called mouse anti-UCH-L1 antibody UCH-L1-5; HRP-labeled anti-UCH-L1 detection antibody) VH: EVKLVESGGGSVQPGGSLSLSCAASGFTFTEYYMSWVRQFPGKALEWLAFIRNRAHGYTTEYSASVKGRFTISRDNSQSILYLQMNALRTEDSATYYCASSYGAPFAYWGQGTLVSVSA VL: DIVMTQAAPSVPVTPGESVSISCRSSKSLLHSDGNTYLYWFLQRPGQSPQLLIYRMSNLASGVPDRFSGSGSGTAFTLRISRVEAEDVGVYYCMQHLEYPLTFGAGTKLELK and stop.
459000
